tested.on: PIK3C3 lipid kinase (Homo sapiens, UniProt Q8NEB9)
Sequence (Q8NEB9 whole entry): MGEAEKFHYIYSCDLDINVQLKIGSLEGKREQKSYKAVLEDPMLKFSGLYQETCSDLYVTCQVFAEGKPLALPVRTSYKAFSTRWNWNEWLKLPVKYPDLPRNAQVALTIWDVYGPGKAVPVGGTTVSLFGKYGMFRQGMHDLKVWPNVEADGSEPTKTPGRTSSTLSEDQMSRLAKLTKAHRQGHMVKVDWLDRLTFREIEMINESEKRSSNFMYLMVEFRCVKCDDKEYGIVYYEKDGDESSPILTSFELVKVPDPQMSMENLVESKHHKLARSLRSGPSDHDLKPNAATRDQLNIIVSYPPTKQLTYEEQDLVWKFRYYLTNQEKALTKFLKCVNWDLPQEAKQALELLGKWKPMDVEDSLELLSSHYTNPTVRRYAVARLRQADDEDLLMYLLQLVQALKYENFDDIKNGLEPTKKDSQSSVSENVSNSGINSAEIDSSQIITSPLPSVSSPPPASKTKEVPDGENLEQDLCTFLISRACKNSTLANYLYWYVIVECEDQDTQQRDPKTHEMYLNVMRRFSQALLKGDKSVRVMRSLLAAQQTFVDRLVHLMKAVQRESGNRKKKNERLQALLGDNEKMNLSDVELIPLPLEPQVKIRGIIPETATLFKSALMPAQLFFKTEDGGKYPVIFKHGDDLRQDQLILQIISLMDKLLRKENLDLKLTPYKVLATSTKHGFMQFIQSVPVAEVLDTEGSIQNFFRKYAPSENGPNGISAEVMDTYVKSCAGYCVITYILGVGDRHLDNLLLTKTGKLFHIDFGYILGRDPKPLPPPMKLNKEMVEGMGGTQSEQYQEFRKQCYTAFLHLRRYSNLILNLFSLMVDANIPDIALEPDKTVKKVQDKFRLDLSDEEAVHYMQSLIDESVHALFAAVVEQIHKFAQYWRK
assay.overview: Biochemical Vps34 lipid kinase assay (ADP-Glo)
condition.set: 1 h, single dose 1 μM; residual activity compared to control (DMSO); 20 μM ATP; read-out: VPS34_1microM_%ofcntrl
hey, just use 1 (yes) if measured remaining activity at 1 µM is less than 50%, otherwise 0 (no)

Worked examples, 3 molecules total:
| molecule | label.class |
| --- | --- |
| O=C1CN2CCN(CC2)Cc2cccc(c2)Nc2cc(ccn2)-c2cnc(nc2)NCCS(=O)(=O)N1 [Compound 126] | 0 (no) |
| O=C1CN2CCN(CC2)Cc2cccc(c2)Nc2cc(ccn2)-c2cnc(cn2)NCCCN1 [Compound 39] | 1 (yes) |
| CC1(C)c2cccc(c2)Nc2cc(ccn2)-c2cnc(nc2)NCCCNC(=O)CN2CCN1CC2 [Compound 74] | 0 (no) |

Inquiry: Hello, I'm reviewing records and need to know if remaining activity at 1 µM of [N-]=[N+]=N[C@H]1C[C@H]2CCNC(=O)C3(CC3)N3CCN(CC3)Cc3cccc(c3)Nc3cc(ccn3)-c3cnc(nc3)N2C1 [Compound 83] is below 50%. Could you check?
Reply text: 1 (yes)

Inquiry: For O=C1CC2CCNC(=O)CN3CCN(CC3)Cc3cccc(c3)Nc3cc(ccn3)-c3cnc(nc3)N2C1 (stereo not drawn) [Compound 88] , is the recorded remaining activity at 1 µM below the cut-off of 50%?
Reply text: 0 (no)

Inquiry: Does COC(=O)C1CCNC(=O)CN2CCN(CC2)Cc2cccc(c2)Nc2cc(ccn2)-c2cnc(nc2)N1 (single isomer, unassigned) [Compound 118] have remaining activity at 1 µM strictly under 50%?
Reply text: 0 (no)

Source of measurements: patent US20170022201A1
